Reference for the values: patent US20220340597A1

assayed_target: human TLR8 (Homo sapiens)
Sequence (Q9NR97 27-1041): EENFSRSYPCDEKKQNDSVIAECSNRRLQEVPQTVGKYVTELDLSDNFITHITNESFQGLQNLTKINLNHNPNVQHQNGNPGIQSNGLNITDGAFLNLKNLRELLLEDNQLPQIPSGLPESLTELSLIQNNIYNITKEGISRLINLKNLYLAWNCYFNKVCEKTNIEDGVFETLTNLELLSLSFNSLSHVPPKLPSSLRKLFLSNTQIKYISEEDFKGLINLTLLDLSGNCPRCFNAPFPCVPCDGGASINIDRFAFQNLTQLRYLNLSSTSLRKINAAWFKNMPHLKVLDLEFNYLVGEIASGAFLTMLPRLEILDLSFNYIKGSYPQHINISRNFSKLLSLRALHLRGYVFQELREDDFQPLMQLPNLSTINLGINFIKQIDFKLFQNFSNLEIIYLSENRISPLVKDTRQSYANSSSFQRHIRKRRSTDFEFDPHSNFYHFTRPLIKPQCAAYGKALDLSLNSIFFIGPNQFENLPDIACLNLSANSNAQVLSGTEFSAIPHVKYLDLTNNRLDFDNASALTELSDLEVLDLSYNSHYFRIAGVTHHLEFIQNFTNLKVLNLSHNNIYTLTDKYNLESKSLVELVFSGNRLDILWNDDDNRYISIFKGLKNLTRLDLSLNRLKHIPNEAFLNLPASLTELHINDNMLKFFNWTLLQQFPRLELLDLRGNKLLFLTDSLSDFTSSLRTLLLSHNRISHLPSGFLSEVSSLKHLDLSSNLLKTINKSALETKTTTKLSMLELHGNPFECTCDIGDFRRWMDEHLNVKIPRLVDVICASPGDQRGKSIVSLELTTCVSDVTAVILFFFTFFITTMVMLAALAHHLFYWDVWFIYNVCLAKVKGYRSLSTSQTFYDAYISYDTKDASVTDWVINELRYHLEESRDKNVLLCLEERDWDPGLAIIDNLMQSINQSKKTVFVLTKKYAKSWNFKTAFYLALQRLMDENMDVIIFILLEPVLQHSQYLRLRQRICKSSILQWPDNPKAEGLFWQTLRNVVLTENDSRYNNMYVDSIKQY
measurement_label: IC50 (nM)

| sample_smiles | measurement_label | unit_of_measurement | value |
| --- | --- | --- | --- |
| [2H]c1ccc2c(N3C[C@@H]4CN(Cc5ccc(N6CC7(CN(C)C7)C6)nc5C)CCN4[C@H](C)C3)ccc(C#N)c2n1 | IC50 | nM | 5 |

1. [2H]c1ccc2c(N3C[C@@H]4CN(Cc5ccc(N6CC7CNCC(C6)O7)nc5C)CCN4[C@H](C)C3)ccc(C#N)c2n1
2. C[C@@H]1CN(c2ccc(C#N)c3ncccc23)C[C@@H]2CN(CCc3ccc(N4CCNCC4)nc3)CCN21
3. C[C@@H]1CN(c2ccc(C#N)c3ncccc23)C[C@@H]2CN(Cc3ccc4c(c3)CCNC4)CCN21
4. C[C@@H]1CN(c2ccc(C#N)c3ncccc23)C[C@@H]2CN(Cc3ccc(N4CCNCC4)nc3)CCN21
Input line: Descending sort on IC50 required. Put the labels in the requested order and list them out.
Output line: 4, 2, 3, 1
(4: 52 nM, 2: 21 nM, 3: 12 nM, 1: 7 nM)

###

assayed_target: human TLR7 (Homo sapiens, UniProt Q9NYK1)
Sequence (Q9NYK1 27-1049): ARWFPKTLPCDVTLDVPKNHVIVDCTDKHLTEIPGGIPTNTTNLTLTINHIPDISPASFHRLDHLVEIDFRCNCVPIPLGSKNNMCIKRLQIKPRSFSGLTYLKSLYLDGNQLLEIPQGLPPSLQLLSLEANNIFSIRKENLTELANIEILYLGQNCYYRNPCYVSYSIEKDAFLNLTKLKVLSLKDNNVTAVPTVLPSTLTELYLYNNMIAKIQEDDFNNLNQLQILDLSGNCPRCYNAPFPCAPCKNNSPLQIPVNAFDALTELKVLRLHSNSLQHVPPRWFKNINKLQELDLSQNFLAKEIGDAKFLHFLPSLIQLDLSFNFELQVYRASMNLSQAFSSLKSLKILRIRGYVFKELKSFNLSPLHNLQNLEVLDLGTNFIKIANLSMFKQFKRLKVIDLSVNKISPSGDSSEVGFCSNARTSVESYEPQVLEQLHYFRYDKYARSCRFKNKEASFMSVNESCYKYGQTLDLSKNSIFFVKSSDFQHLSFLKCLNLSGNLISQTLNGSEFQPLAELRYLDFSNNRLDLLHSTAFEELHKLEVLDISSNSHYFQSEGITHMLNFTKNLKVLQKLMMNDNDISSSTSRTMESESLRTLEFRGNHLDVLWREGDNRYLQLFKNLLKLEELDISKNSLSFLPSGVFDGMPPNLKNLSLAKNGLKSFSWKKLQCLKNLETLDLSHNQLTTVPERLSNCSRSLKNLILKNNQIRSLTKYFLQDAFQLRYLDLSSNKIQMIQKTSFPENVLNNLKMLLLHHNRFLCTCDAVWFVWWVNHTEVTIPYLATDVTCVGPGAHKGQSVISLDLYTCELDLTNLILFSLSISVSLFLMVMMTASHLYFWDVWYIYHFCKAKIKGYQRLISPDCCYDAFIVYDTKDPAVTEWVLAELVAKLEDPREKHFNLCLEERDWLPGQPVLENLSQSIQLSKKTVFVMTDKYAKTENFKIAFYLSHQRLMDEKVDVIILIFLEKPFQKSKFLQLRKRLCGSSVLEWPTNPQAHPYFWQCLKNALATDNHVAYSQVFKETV
assay: HEK293-Blue-hTLR-7 cells assay
experimental_setup: HEK293-Blue-hTLR7 cells, R848 stimulation, 20 hrs, SEAP reporter; read-out: HEK/hTLR7 IC50
measurement_label: IC50 (nM)

| sample_smiles | unit_of_measurement | IC50 |
| --- | --- | --- |
| [2H]c1ccc2c(N3C[C@@H]4CN(Cc5ccc(N6CC7(CN(C)C7)C6)nc5C)CCN4[C@H](C)C3)ccc(C#N)c2n1 | nM | 23 |

P. Cc1cnc(N2CCN3[C@@H](C2)CN(c2ccc(C#N)c4ncccc24)C[C@H]3C)nc1N1CCNCC1
Q. C[C@@H]1CN(c2ccc(C#N)c3ncccc23)C[C@@H]2CN(Cc3cncc(N4CCNCC4)c3)CCN21
R. C[C@@H]1CN(c2ccc(C#N)n3ncc(F)c23)C[C@@H]2CN(CCc3ccc(N4C[C@@H](N)[C@@H](F)C4)nc3)CCN21
S. C[C@@H]1CN(c2ccc(C#N)c3ncccc23)C[C@@H]2CN(c3nccc(N4CCNCC4)n3)CCN21
Input line: Arrange the 4 entries by IC50 so the values rise. Lab note: record answer as labels in requested order.
Output line: P, S, Q, R
(P: 9 nM, S: 16 nM, Q: 23 nM, R: 34 nM)
